Tested on: Landrace pig bladder strips
Experiment: Functional potassium channel opening activity in isolated, field-stimulated bladder strips
Settings: maximal efficacy on stimulated twitch, relative to P1075
Procedure: Compound were evaluated for functional potassium channel opening activity using tissue strips obtained from Landrace pig bladders. Landrace pig bladders were obtained from female Landrace pigs of 9-30 kg. […] The maximal efficacy of each compound (expressed as % relative to P1075) is reported. […] Agonist potencies were also expressed as an index relative to P1075. The index was calculated by dividing the ED50 for P1075 by the ED50 for the test agonist in a given tissue. […]
The reader will find reported Efficacy (%P1075) values listed item by item below.

{"compound": "CC(C)(Cc1ccccc1)C(NC(=O)c1ccccc1)Nc1c(Nc2cccnc2)c(=O)c1=O (stereo not drawn)", "measuredTarget": "Landrace pig bladder strips", "endpointUnit": "%P1075", "Efficacy (%P1075)": 85}
{"compound": "CC(C)(C)C(NC(=O)c1cc(F)cc(F)c1)Nc1c(Nc2cccnc2)c(=O)c1=O (single isomer, unassigned; (+))", "measuredTarget": "Landrace pig bladder strips", "endpointUnit": "%P1075", "Efficacy (%P1075)": 100}
{"compound": "CC(C)(C)C(NC(=O)c1cccc(F)c1)Nc1c(Nc2cccnc2Cl)c(=O)c1=O (stereo not drawn)", "measuredTarget": "Landrace pig bladder strips", "endpointUnit": "%P1075", "Efficacy (%P1075)": 98}
